Reference source for all entries: patent US8859541B2

Assay System: XIAP BIR3 (Homo sapiens)
Construct: covering amino acids 241 to 356; XIAP BIR3
Experiment Description: XIAP BIR3 binding assay (DELFIA), displacement of SMAC peptide
Details: GST-fusion BIR3 domain (aa 241 to 356) 10 nM, SMAC peptide 10 nM; activity of the (S)-isomers
Recorded Metric: pIC50
Note on pIC50: it is the negative log10 of concentration, concentration in mol/L.

Check out these entries, answers already filled in.
CC(N)C(=O)Nc1ccc(-c2cncnc2)c(C#Cc2ccccc2)n1 (centres unmarked) = 6.66
CNC(C)C(=O)Nc1ccc(-c2nccc3ccccc23)c(C#Cc2ccccc2)n1 (centres unmarked) = 5.42
CC(N)C(=O)Nc1ccc(C2CCCC2)c(C#Cc2ccccc2)n1 (centres unmarked) = 6.05
CNC(C)C(=O)Nc1ccc(N(C)C(=O)C2CCOCC2)c(C#Cc2ccccc2)n1 (centres unmarked) = 5.83
CC(N)C(=O)Nc1cccc(C#Cc2c(Cl)cccc2Cl)n1 (centres unmarked) = 5.70

compound CNC(C)C(=O)Nc1ccc(-c2cccc(F)c2F)c(C#Cc2ccccc2)n1 (centres unmarked) , pIC50 observed: 5.85

compound CC(N)C(=O)Nc1ccc(-c2c(Cl)cccc2Cl)c(C#Cc2ccccc2)n1 (centres unmarked) , pIC50 observed: 5.52

compound CNC(C)C(=O)Nc1ccc(-c2c(C)nc3ccccn23)c(C#Cc2ccc(-n3cncn3)cc2)n1 (centres unmarked) , pIC50 observed: 6.78

compound CNC(C)C(=O)Nc1ccc(-c2c(C)ncn2C)c(C#Cc2ccccc2)n1 (centres unmarked) , pIC50 observed: 6.57

compound CNC(C)C(=O)Nc1ccc(-c2cccc3ccccc23)c(C#Cc2ccccc2)n1 (centres unmarked) , pIC50 observed: 5.49

compound CNC(C)C(=O)Nc1ccc(N(C)S(=O)(=O)c2ccccc2)c(C#Cc2ccccc2)n1 (centres unmarked) , pIC50 observed: 6.80

compound CNC(=O)c1ccc(-c2ccc(NC(=O)C(C)NC)nc2C#Cc2ccccc2)cn1 (centres unmarked) , pIC50 observed: 6.87

* * *

Assay System: XIAP BIR3 (Homo sapiens, UniProt P98170)
Construct: covering amino acids 241 to 356; XIAP BIR3
Sequence (P98170 241-356): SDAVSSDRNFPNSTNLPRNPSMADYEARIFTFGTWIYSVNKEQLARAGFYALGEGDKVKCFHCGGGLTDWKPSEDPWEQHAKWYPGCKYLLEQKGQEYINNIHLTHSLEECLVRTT
Experiment Description: XIAP BIR3 binding assay (DELFIA), displacement of SMAC peptide
Details: GST-fusion BIR3 domain (aa 241 to 356) 10 nM, SMAC peptide 10 nM; activity of the (S)-isomers
Procedure: Biological Methods XIAP BIR3 and cIAP1 BIR3 Binding Assays (DELFIA) Peptide […]-Lys(Biotin), representing the N-terminus of mature human SMAC (SMAC peptide), was used as interaction partner in the protein-peptide interaction assay. BIR3 domains (10 nM) were incubated with SMAC peptide (10 nM) in Assay Buffer (50 mM Tris, 120 mM NaCl, 0.1% BSA, 1 mM DTT, 0.05% TritonX100) for one hour at room temperature in the presence of inhibitiory compounds. […]
Quick reference: IC50 of the listed items.
Number in nM, nothing else.

CNC(C)C(=O)Nc1ccc(-c2cccc3ncccc23)c(C#Cc2ccc(C)cc2)n1 (stereo not drawn) = 388

molecule CC(N)C(=O)Nc1cccc(C#Cc2cccnc2)n1 (stereo not drawn) , IC50 observed: 9700

molecule CNC(C)C(=O)Nc1ccc(-c2cnc(N3CCOCC3)nc2)c(C#Cc2ccccc2)n1 (stereo not drawn) , IC50 observed: 102

molecule CNC(C)C(=O)Nc1ccc(-c2c(C)nc3ccccn23)c(C#Cc2cc3ccncc3s2)n1 (stereo not drawn) , IC50 observed: 95

molecule CNC(C)C(=O)Nc1ccc(-c2cncnc2)c(C#Cc2ccc3ccncc3c2)n1 (stereo not drawn) , IC50 observed: 745

molecule CNC(C)C(=O)Nc1ccc(-c2c(C)nc3ccccn23)c(C#Cc2ccc(-n3ccnc3)cc2)n1 (stereo not drawn) , IC50 observed: 207
